Sourced from patent US20200048267A1

tgt: recombinant human Meningioma Expressed Antigen 5 (MGEA5), also referred to as O-GlcNAcase (OGA) (Homo sapiens, UniProt O60502)
Construct: Full length OGA enzyme was purchased at OriGene (cat # TP322411); purchased OriGene TP322411
measurement-protocol: OGA biochemical assay (inhibition of FM-GlcNAc hydrolysis, fluorescence)
details: read-out: ENZYMATIC hOGA; pIC50 (converted)
assay-metric: IC50 (nM)

The cases that follow already have their IC50 on record.
| compound | assay-metric | units-symbol | assay-value |
| --- | --- | --- | --- |
| Cc1cc(N2CCC3(CCN(Cc4ccc5scnc5c4)C3)C2)nc(C)n1 (stereo not drawn) | IC50 | nM | 170 |
| CC(=O)Nc1ncc(CN2CCC3(CCN(c4cncc(C(F)(F)F)c4)C3)C2)s1 (stereo not drawn) | IC50 | nM | 49 |
| CC(=O)Nc1ncc(CN2CC3(CCN(c4cc(C)nc(C)c4)C3)C2)s1 | IC50 | nM | 8710 |
| Cc1cc(N2CCC3(CCN(C(C)c4ccc5c(c4)OCO5)C3)C2)nc(C)n1 (stereo not drawn) | IC50 | nM | 135 |
| CNc1cncc(N2CCC3(CCN(Cc4cnc(NC(C)=O)s4)C3)C2)n1 (stereo not drawn) | IC50 | nM | 61.7 |
| CC(=O)Nc1ncc(CN2CCC3(CCN(c4cc(C)nc(C)c4)C3)C2)s1 (single isomer, unassigned) [Product 3] | IC50 | nM | 3.72 |

1: Cc1cc(N2CCC3(CCN(C(C)c4ccc5scnc5c4)C3)C2)nc(C)n1.Cl (stereo not drawn)
2: CC(=O)Nc1ncc(CN2CCC3(CCN(c4ccc(C)nc4C#N)C3)C2)s1 (stereo not drawn)
Problem: Which shows the larger IC50 value: 1 or 2 ? Respond with the label that goes with your answer.
Result: 1
(1: 49 nM, 2: 26.3 nM)

###

tgt: OGA (Homo sapiens, UniProt O60502)
Construct: HEK293 cells inducible for P301L mutant human Tau (isoform 2N4R) were established at Janssen; endogenous in cells; host or cells: HEK293 cells inducible for P301L mutant human Tau (2N4R)
Sequence (O60502 1-916): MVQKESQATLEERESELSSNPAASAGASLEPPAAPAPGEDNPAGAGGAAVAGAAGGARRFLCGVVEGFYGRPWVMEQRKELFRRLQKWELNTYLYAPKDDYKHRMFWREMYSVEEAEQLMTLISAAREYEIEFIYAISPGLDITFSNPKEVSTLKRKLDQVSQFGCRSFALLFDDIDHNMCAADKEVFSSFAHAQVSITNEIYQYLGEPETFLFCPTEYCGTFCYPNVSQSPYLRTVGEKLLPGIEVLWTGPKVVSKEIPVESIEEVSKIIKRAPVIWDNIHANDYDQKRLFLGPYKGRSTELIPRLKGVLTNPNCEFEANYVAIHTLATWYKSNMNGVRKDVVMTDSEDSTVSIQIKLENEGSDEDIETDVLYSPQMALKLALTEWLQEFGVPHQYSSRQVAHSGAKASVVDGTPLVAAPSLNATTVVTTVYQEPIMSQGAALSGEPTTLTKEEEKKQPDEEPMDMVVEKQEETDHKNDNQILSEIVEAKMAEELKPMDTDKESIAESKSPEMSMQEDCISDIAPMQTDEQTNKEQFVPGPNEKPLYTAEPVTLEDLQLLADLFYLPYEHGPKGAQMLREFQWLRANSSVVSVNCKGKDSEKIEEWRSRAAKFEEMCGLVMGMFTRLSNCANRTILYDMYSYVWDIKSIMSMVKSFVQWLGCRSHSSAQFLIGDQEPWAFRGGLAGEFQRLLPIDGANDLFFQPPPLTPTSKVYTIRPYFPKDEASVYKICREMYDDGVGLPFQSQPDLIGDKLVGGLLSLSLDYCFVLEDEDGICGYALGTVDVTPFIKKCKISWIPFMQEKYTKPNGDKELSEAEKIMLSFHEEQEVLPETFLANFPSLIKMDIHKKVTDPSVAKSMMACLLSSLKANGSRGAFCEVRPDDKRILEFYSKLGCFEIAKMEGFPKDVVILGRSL
measurement-protocol: OGA cellular assay (ICC detection of O-GlcNAcylated proteins in HEK293 cells inducible for P301L mutant human Tau)
Type: cell-based
details: 6 hours incubation, read-out: CELLULAR hOGA, pEC50 (converted)
assay-metric: EC50 (µM)

The cases that follow already have their EC50 on record.
| compound | EC50 (µM) |
| --- | --- |
| CC(=O)Nc1ncc(CN2CCC3(CCN(c4cc(C)nc(C)c4)C3)C2)s1 (stereo not shown) [Product 1] | 0.141 |
| CC(=O)Nc1ncc(CN2CCC3(CCN(c4cnc(C)c(C)c4)C3)C2)s1 (stereo not shown) | 0.123 |

1: Cc1cc(N2CCC3(CCN(C(C)c4ccc5sc(C)nc5c4)C3)C2)cc(C)n1 (stereo not shown)
2: CC(=O)Nc1ncc(CN2CCC3(CCN(c4ccnc(C)c4)C3)C2)s1 (stereo not shown)
3: CC(=O)Nc1ncc(CN2CCC3(CCN(c4cncc(C)c4)C3)C2)s1 (stereo not shown)
4: CC(=O)Nc1ncc(CN2CCC3(CCN(c4ncc(C)cc4C)C3)C2)s1 (stereo not shown)
Problem: Reorder the items by EC50, least to greatest. Show the ranking through the labels, in the order asked for.
Result: 4, 3, 2, 1
(4: 0.0457 µM, 3: 0.138 µM, 2: 0.209 µM, 1: 0.38 µM)

###

tgt: recombinant human Meningioma Expressed Antigen 5 (MGEA5), also referred to as O-GlcNAcase (OGA) (Homo sapiens)
Construct: Full length OGA enzyme was purchased at OriGene (cat # TP322411); purchased OriGene TP322411
measurement-protocol: OGA biochemical assay (inhibition of FM-GlcNAc hydrolysis, fluorescence)
details: read-out: ENZYMATIC hOGA; pIC50 (converted)
assay-metric: IC50 (nM)

| compound | IC50 [nM] |
| --- | --- |
| Cc1cc(N2CCC3(CCN(Cc4ccc5sc(C)nc5c4)C3)C2)cc(C(F)(F)F)n1 (stereo not drawn) | 69.2 |
| Cc1cc(N2CCC3(CCN(C(C)c4ccc5c(c4)OCO5)C3)C2)cc(C)n1 (stereo not drawn) | 100 |
| CC(=O)Nc1ncc(CN2CCC3(CCN(c4cncc(C)c4)C3)C2)s1 (stereo not drawn) | 10.2 |
| CC(=O)Nc1ncc(CN2CCC3(CCN(c4cncc(C)n4)C3)C2)s1 (stereo not drawn) | 34.7 |

P: Cc1cc(N2CCC3(CCN(C(C)c4ccc5nccnc5c4)C3)C2)cc(C)n1 (single isomer, unassigned) [Product 7]
Q: COc1cc(N2CCC3(CCN(Cc4cnc(NC(C)=O)s4)C3)C2)ccn1 (stereo not drawn)
Problem: Given the two records P and Q , choose the one whose IC50 value is lower. Respond with the label that goes with your answer.
Result: Q
(Q: 6.92 nM, P: 72.4 nM)

P: CC(=O)Nc1ncc(CN2CCC3(CCN(c4cnc(C)nc4)C3)C2)s1 (stereo not drawn)
Q: Cc1cc(N2CCC3(CCN(Cc4nc5ccccc5[nH]4)C3)C2)nc(C)n1 (stereo not drawn)
Problem: Which shows the larger IC50 value: P or Q ? Respond with the label that goes with your answer.
Result: Q
(Q: 324 nM, P: 61.7 nM)

###

tgt: recombinant human Meningioma Expressed Antigen 5 (MGEA5), also referred to as O-GlcNAcase (OGA) (Homo sapiens)
Construct: Full length OGA enzyme was purchased at OriGene (cat # TP322411); purchased OriGene TP322411
measurement-protocol: OGA biochemical assay (inhibition of FM-GlcNAc hydrolysis, fluorescence)
assay-metric: ENZYMATIC hOGA; pIC50

| molecule | assay-value |
| --- | --- |
| CC(=O)Nc1ncc(CN2CCC3(CCN(c4cc(C)ncc4C(F)(F)F)C3)C2)s1 (stereo not shown) | 7.44 |
| Cc1cc(N2CCC3(CCN(C(C)c4cc5ccccc5n4C)C3)C2)nc(C)n1.Cl (stereo not shown) | 5.58 |
| CC(=O)Nc1ncc(CN2CCC3(CCN(c4ncc(C)cc4C)C3)C2)s1 (stereo not shown) | 8.41 |
| CC(=O)Nc1ncc(CN2CCC3(CCN(c4cncc(C5CC5)n4)C3)C2)s1 (stereo not shown) | 7.69 |

###

tgt: recombinant human Meningioma Expressed Antigen 5 (MGEA5), also referred to as O-GlcNAcase (OGA) (Homo sapiens)
Construct: Full length OGA enzyme was purchased at OriGene (cat # TP322411); purchased OriGene TP322411
Sequence (O60502 1-916): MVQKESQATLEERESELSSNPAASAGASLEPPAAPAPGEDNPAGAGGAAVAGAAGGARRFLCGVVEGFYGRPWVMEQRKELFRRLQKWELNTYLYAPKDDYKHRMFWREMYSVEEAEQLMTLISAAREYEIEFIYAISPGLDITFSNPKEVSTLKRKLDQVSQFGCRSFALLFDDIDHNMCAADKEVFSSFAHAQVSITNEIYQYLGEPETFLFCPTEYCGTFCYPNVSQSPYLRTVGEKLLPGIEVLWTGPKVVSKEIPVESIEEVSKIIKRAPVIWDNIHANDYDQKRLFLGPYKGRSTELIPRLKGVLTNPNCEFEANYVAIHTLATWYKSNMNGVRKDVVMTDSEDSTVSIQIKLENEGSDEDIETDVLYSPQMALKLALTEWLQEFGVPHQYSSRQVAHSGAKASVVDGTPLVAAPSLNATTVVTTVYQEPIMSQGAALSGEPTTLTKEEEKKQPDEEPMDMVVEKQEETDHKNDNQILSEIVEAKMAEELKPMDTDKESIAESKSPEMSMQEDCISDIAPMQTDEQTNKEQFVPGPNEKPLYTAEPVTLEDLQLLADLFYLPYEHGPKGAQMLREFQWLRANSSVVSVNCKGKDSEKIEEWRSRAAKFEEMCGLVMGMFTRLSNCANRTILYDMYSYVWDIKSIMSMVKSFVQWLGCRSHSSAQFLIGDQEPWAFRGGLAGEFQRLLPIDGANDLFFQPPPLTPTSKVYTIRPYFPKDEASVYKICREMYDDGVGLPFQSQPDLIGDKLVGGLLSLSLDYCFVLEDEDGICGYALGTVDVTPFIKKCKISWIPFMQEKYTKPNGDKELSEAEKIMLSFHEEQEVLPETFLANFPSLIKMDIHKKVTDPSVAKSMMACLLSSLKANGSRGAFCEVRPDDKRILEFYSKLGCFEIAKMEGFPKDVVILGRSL
measurement-protocol: OGA biochemical assay (inhibition of FM-GlcNAc hydrolysis, fluorescence)
assay-metric: ENZYMATIC hOGA; pIC50

| compound | ENZYMATIC hOGA; pIC50 |
| --- | --- |
| CC(=O)Nc1ncc(CN2CCC3(CCN(c4cc(C)nc(C)n4)C3)C2)s1 (stereo not drawn) | 7.88 |
| CC(=O)Nc1ncc(CN2CCC3(CCN(c4cc(C)ncc4C)C3)C2)s1 (stereo not drawn) | 7.87 |
| CC(=O)Nc1ncc(CN2CCC3(CCN(c4cc(C)nc(C)c4)C3)C2)s1 (stereo not drawn) | 8.22 |
